target: LL-diaminopimelate aminotransferase, chloroplastic (Arabidopsis thaliana) (UniProt Q93ZN9); assay: Inhibition of Arabidopsis thaliana LL-DAP-AT expressed in Escherichia coli assessed as time independent type of inhibition by aminobenzaldehyde-based assay
Sequence (Q93ZN9 whole entry): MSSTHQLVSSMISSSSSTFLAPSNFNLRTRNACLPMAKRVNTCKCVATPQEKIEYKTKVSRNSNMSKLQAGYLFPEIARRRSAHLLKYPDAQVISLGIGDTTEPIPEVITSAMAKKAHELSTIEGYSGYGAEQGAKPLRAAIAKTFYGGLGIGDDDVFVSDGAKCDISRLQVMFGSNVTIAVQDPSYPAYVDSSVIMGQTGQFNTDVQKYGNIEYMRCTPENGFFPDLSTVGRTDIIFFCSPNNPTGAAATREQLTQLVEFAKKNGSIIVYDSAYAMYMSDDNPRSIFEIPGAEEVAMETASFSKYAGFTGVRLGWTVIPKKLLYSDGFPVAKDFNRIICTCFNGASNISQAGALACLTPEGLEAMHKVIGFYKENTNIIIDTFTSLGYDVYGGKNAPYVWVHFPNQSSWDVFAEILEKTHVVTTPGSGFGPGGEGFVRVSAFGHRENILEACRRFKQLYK
The source made the active and inactive calls. The rule behind the calls is not given here.
ASSAY READOUT: inhibition

Here is how some molecules turned out for inhibition.
| SMILES STRING | ASSAY READOUT | VAL |
| --- | --- | --- |
| CC(=O)NN1C(=O)/C(=C/c2ccc(Br)o2)SC1=S | inhibition | Active |
| CCN1C(=O)/C(=C/c2cc(Cc3ccccc3Cl)ccc2O)SC1=S | inhibition | Active |
| O=C1OC(c2ccccc2)=C/C1=N\Nc1ccccc1C(=O)O | inhibition | Active |
| Cc1[nH]n(-c2ccccc2)c(=O)c1C=C1C(=O)N(C)C(=O)N(C)C1=O | inhibition | Active |

# input molecule: `Cc1cc(C=C2C(=O)NC(=S)NC2=O)c(C)n1C` ; wanted: its inhibition
Active

###

molecular target: LL-diaminopimelate aminotransferase, chloroplastic (Arabidopsis thaliana) (UniProt Q93ZN9); assay: Inhibition of Arabidopsis thaliana LL-DAP-AT expressed in Escherichia coli at 10 uM by aminobenzaldehyde-based assay
# inhibition annotations
Write the numeric value and follow it with the unit.

Here is how some molecules turned out for inhibition.
| SMILES STRING | ASSAY READOUT | VAL |
| --- | --- | --- |
| O/C(=C\c1nc2ccccc2nc1O)c1cccs1 | inhibition | 15% |
| CCOC(=O)C1=C(Nc2ccc([N+](=O)[O-])cc2)S/C(=C\c2ccc(N(C)C)cc2)C1=O | inhibition | 19% |
| C=CCN1C(=O)/C(=C\c2cc3ccccc3n2C)C(=O)NC1=S | inhibition | 35% |

Request - read-out inhibition | tested on LL-diaminopimelate aminotransferase, chloroplastic (Arabidopsis thaliana) (UniProt Q93ZN9) | molecule `Cc1ccc(OCCn2c(C=C3C(=O)NC(=O)NC3=O)cc3ccccc32)cc1C`
28%

Request - read-out inhibition | tested on LL-diaminopimelate aminotransferase, chloroplastic (Arabidopsis thaliana) (UniProt Q93ZN9) | molecule `COc1cc(-c2nnc(SCC(=O)c3ccc(F)cc3)n2-c2ccccc2)cc(OC)c1OC`
14%

Request - read-out inhibition | tested on LL-diaminopimelate aminotransferase, chloroplastic (Arabidopsis thaliana) (UniProt Q93ZN9) | molecule `N/C(=N\[N+](=O)[O-])N/N=C\c1ccc(-c2cccc([N+](=O)[O-])c2)o1`
13%

Request - read-out inhibition | tested on LL-diaminopimelate aminotransferase, chloroplastic (Arabidopsis thaliana) (UniProt Q93ZN9) | molecule `Cc1ccc(C2=NC(=O)/C(=C/c3cc4c(cc3Br)OCO4)S2)cc1`
13%

Request - read-out inhibition | tested on LL-diaminopimelate aminotransferase, chloroplastic (Arabidopsis thaliana) (UniProt Q93ZN9) | molecule `O=C1OC(c2ccccc2)=C/C1=N\Nc1ccccc1C(=O)O`
16%

Request - read-out inhibition | tested on LL-diaminopimelate aminotransferase, chloroplastic (Arabidopsis thaliana) (UniProt Q93ZN9) | molecule `O=C(N/N=C/c1ccc(O)cc1O)c1[nH]c2ccc([N+](=O)[O-])cc2c1-c1ccccc1`
15%

Request - read-out inhibition | tested on LL-diaminopimelate aminotransferase, chloroplastic (Arabidopsis thaliana) (UniProt Q93ZN9) | molecule `Cc1ccc(S(=O)(=O)N2C(=O)/C(=C3\SC(=S)NC3=O)c3ccccc32)cc1`
25%
